Numbers sourced from ChEMBL document CHEMBL1130546.

molecular target: Cathepsin B (Homo sapiens, UniProt P07858); assay: Equilibrium dissociation constant for the inhibition of human cathepsin B was determined
Where a SMILES comes first, the peptide text is derived from it. [ ]: non-standard residue; d: D form. Nle = CCCC[C@H](N)C(=O)O
ASSAY ENDPOINT: Ki (nM)
Give a bare numeral; the unit nM is implied.

Fill blank: measured Ki of the compound CCCC[C@H](NC(=O)[C@H](CC(C)C)NC(=O)[C@H](CC(C)C)NC(C)=O)C(=O)O (Ac-Leu-Leu-[Nle]-OH) is ____.
1
